Test: Terminal half life in Sprague-Dawley rat at 10 mg/kg, po by LC-MS/MS method
Type: ADME, organism-based
Details: in vivo, read-out: beta t1/2 (converted)
quantity kind: half-life

Incoming: State its half-life: CNC(=O)[C@H](Cc1c[nH]c2ccccc12)NC(=O)[C@@H](CC(=O)Nc1ccccc1N)CC(C)C
Outgoing: 5.64 h

====

Assay: Lipid-water partition coefficient, logP of compound
Type: physicochemical
quantity kind: logP
Numbers only.

• CNC(=O)[C@H](Cc1c[nH]c2ccccc12)NC(=O)[C@@H](CC(=O)Nc1ccccc1N)CC(C)C = 1.91

Incoming: Give logP for the following molecule: CNC(=O)[C@H](Cc1c[nH]c2ccccc12)NC(=O)[C@@H](CC(=O)NO)CC(C)C
Outgoing: 1.04

====

Assay: Apparent volume of distribution in Sprague-Dawley rat at 10 mg/kg, iv after 15 mins to 24 hrs by LC-MS/MS method
Type: ADME, organism-based
Conditions: in vivo, read-out: Vz (converted)
quantity kind: Vd (L/kg)
Numbers only, in L/kg.

- CNC(=O)[C@H](Cc1c[nH]c2ccccc12)NC(=O)[C@@H](CC(=O)NO)CC(C)C [ILOMASTAT]: 1.43

Switching to the query record.
Incoming: Dear colleague, please send me the reported Vd for CNC(=O)[C@H](Cc1c[nH]c2ccccc12)NC(=O)[C@@H](CC(=O)Nc1ccccc1N)CC(C)C when you can.
Outgoing: 35.8

====

Assay: Apparent clearance in Sprague-Dawley rat at 10 mg/kg, po after 15 mins to 24 hrs by LC-MS/MS method
Format: ADME, organism-based
Conditions: in vivo, read-out: CL(app) (converted)
quantity kind: CL/F (mL/min/kg)
Give bare numbers, in mL/min/kg.

Incoming: Provide measured CL/F value, entry: CNC(=O)[C@H](Cc1c[nH]c2ccccc12)NC(=O)[C@@H](CC(=O)Nc1ccccc1N)CC(C)C
Outgoing: 1190

====

Assay: AUC (0 to 24 hrs) in Sprague-Dawley rat at 10 mg/kg, po by LC-MS/MS method
Assay type: ADME, organism-based
Set-up: dose 10 mg/kg, time < 24 hr, route oral
Settings: in vivo
quantity kind: AUC(0-t) at 24 h (ng·h/mL)
Give bare numbers, in ng·h/mL.

Incoming: Consider the molecule CNC(=O)[C@H](Cc1c[nH]c2ccccc12)NC(=O)[C@@H](CC(=O)Nc1ccccc1N)CC(C)C and give its recorded AUC(0-t) at 24 h.
Outgoing: 36.2

====

Target: MMP-2/MMP-9 (Homo sapiens) (UniProt P08253+P14780)
Test: Selectivity ratio of IC50 for human recombinant MMP9 to IC50 for human recombinant MMP2
The source made the active and inactive calls. No cut-off for these calls is given here.
quantity kind: Ratio IC50

Here's what some known entries look like.
• CNC(=O)[C@H](Cc1c[nH]c2ccccc12)NC(=O)[C@@H](CC(=O)Nc1ccc(C)cc1N)CC(C)C = inactive
• CNC(=O)[C@H](Cc1c[nH]c2ccccc12)NC(=O)[C@@H](CC(=O)Nc1ccc(F)cc1N)CC(C)C = 3.52
• CNC(=O)[C@H](Cc1c[nH]c2ccccc12)NC(=O)[C@@H](CC(=O)Nc1ccccc1N)CC(C)C = 8310
• CNC(=O)[C@H](Cc1c[nH]c2ccccc12)NC(=O)[C@@H](CC(=O)Nc1ccccc1NC(C)=O)CC(C)C = inactive
• CNC(=O)[C@H](Cc1c[nH]c2ccccc12)NC(=O)[C@@H](CC(=O)Nc1cccc(N)c1)CC(C)C = 6.59
• CNC(=O)[C@H](Cc1c[nH]c2ccccc12)NC(=O)[C@@H](CC(=O)Nc1ccc(C(=O)c2ccccc2)cc1N)CC(C)C = inactive

# batch: return Ratio IC50 for each of the 2 compounds below
1. CNC(=O)[C@H](Cc1c[nH]c2ccccc12)NC(=O)[C@@H](CC(=O)Nc1ccc(C(F)(F)F)cc1N)CC(C)C
2. CNC(=O)[C@H](Cc1c[nH]c2ccccc12)NC(=O)[C@@H](CC(=O)Nc1ccc(Br)cc1N)CC(C)C

Outgoing:
1: inactive; 2: 1.25
